# test details: soluble on expression in E. coli; label from the status in PepcDB or PDB records
observable: soluble on expression in E. coli

Example entries begin here.
[[record]]
query_sequence = "ITEQTGQLVYDYNIEKDIADVAGNIEELTGFTSEELGNINLKLWTSRIHPEDLNRFLENHKKYLEPDRKSYRIEYRFRKKNGEYIYLEENWVSPEGDRKSSVKRVLGVIKNITERKQA"
observable = "soluble on expression in E. coli"
reported_result = "not soluble"

[[record]]
query_sequence = "MKELVEIAVPENLVGAILGKGGKTLVEYQELTGARIQISKKGEFLPGTRNRRVTITGSPAATQAAQYLISQRVTYEQGVRASNPQKV"
observable = "soluble on expression in E. coli"
reported_result = "soluble"

[[record]]
query_sequence = "MASSSLVRIAVVGDIHGFWNLDEDRKALRVLQERKTKTKRCSNATRYMDFPSFKLSIVGGRPFSHGGDRLFRKNLLVQRYGVHDMEASAGSICRAAHGTPEDHVAIILAHNGPTGLGWQAEDICGKDWGAEGGDHGDPDLEQAIRQLKETTKLSIPLVVFGHMHKELQRGKGNRKMVVQDSDNQTVYVNGAIVPRVKEAKKRGAAESESGGTTRAFTLVEILDGKIKKIAEIWVHVNGSMAKIVEENTLFEDVT"
observable = "soluble on expression in E. coli"
reported_result = "soluble"

[[record]]
query_sequence = "MGSDKIHHHHHHMRGKMIDDPIDLLRQYSRKLVRELGMLQLNKLAAKEQPSYWHTLIEINKEPNITISKLSQLLLVSLPTLSRIVNSLINDELVTVNEGLDKRERFLRVTDKGKEKVNYIDEYSNTKIKRAFHYLTDEEREQVITAIGKYAQALEQSRLIRDQIRILRLSTSRALRKQIVNMIENIQVNEFHLSITPEINASILKAEEEYCYYSSCNFWYAVDEQGGIIGSIGLKKLNHTEGEVKKFFIAPKYRGLGLAQKLMLTLVRNAMKHGFKKLFLGTVAQLNAARRFYEKNGFVLVNKNSLPKEFELCPLDTHFYYCETDKLDKSLRELI"
observable = "soluble on expression in E. coli"
reported_result = "not soluble"

[[record]]
query_sequence = "MAPVTPDAVNARQQRPADPALRRLMHPHHRNYTASKASAHSVKSVSRCGKSRSELGRMERVGSVARSICSRHTRHGVDRSHFSLRDFFRGISANFELGKDFLREMNTPIHVSEAVFLPLSLCTLSPGRCLRLSPFGHSLTLGSHCEICINRSQVHVPQEFSSTQLSFFNNVHKIIPNKTFYVSLLSSSPSAVKAGLSQPSLLYAYLVTGHFCGTICPIFSTNGKGRLIMHLLLQGTSLHIPETCLKLLCENIGPTYELAVDLVGDAFCIKVSPRDTVYEKAVNVDEDAIYEAIKDLECGDELRLQIINYTQLILENKQ"
observable = "soluble on expression in E. coli"
reported_result = "not soluble"


// query soluble on expression in E. coli value for entry `MAIYADNSYSIGNTPLVRLKHFGHNGNVVVKIEGRNPSYSVKCRIGANMVWQAEKDGTLTKGKEIVDATSGNTGIALAYVAAARGYKITLTMPETMSLERKRLLCGLGVNLVLTEGAKGMKGAIAKAEEIVASDPSRYVMLKQFENPANPQIHRETTGPEIWKDTDGKVDVVVAGVGTGGSITGISRAIKLDFGKQITSVAVEPVESPVISQTLAGEEVKPGPHKIQGIGAGFIPKNLDLSIIDRVETVDSDTALATARRLMAEEGILAGISSGAAVAAADRLAKLPEFADKLIVVILPSASERYLSTALFEGIEG`
// result soluble

// query # iterate: `MDARPVHPAFQVFTDALRQRFGEALDAVVLYGSCLHTSDLTEGIADFYVLVSDYRLAYSGRLLAGLNAWLPPNVFYLEVPAAAGVMRAKYAVISTADFERGARQWFHPYIWARFAQPARLLYARDDQTGKRVHTAQASAVLKFISTTLPVLESGPSDLEMIWASGLMLTYAAELRAEREARARHLVRIDPEIYSRLTAAAMPALIPLLSLQADGRYHIGPITPLKRLSARIHWRLRRWQGRVLSVLRLSKATMTFRDCLDYAAWKIERHTGIKVEITPMLRRHPILWGYKVMWQLLRRGVLRLEHHHHHH`
// result soluble

// query # iterate: `MGSDKIHHHHHHMVKKREGDEVQSELMRILAEKQERKENIALVTVISSNSPRGCRAGEMMLVDRFGYIIGDGIGDSLLQENAQREAQICINEGISRRVILPSEEGMTEVFINAFCHRDQLIIVGSGNVALNVYRIASIVGYSITVIDNRAETLSRERFPEAKELLLGDIVELLKAYNIDENTSIVLLSYHHEFDEAALLTVIHSPARYIGIMGNKHKVTAYFSKLNELNIAEELISRVHVPVGIDIGGERAAEIALAVVAEMQAIKYGRAGGFRILQSEITGKVERDELF`
// result not soluble

// query # iterate: `QEQQQELAQLEMARSALDSLSELICLQDCQGNLLTTNRAFDQFWEGRREEAITATASRVATRKSERKWTTDTQGRSCLLEVNLSSLVSPSGELLGTLSISHDVT`
// result not soluble

// query # iterate: `MDEYSPKRHDIAQLKFLCETLYHDCLANLEESNHGWVNDPTSAVNLQLNELIEHIATFALNYKIKYNEDNKLIAQIDEYLDDTFMLFSSYGINTQDLQKWRKSGNRLFRCFVNATRANPVSLSCLEHHHHHH`
// result not soluble

// query # iterate: `MGSDKIHHHHHHKDYKTFPDKYTLSSVDVGGMTAKEAKKAIKKAIDKYQIKVKLDDAEFEMNAEDLGLEYNEKADMQTLINAANRNKVPDKQVKLFNMKKGDEMQNALVDSYITAMTEAQTDSTSNTDNDTDDTKQADKSDAEIFDIKTVVPYRATITYNADAGQFEGVDGVSGDAPIYDKAATKLSSAVKEMKKKAELESSTGYVEGEKAADSDAVKKALKEADAYLDVTVQRHL`
// result not soluble

// query # iterate: `MSEDSELIEQVIEQPDSLIISPPSDSSSSSYNHIQPFVYLESTATTQTNHNVLLILNQKITIDLISLWKKCEIIVCADGGANSLYEYFNDNNHHHHHENLQRSDYIPDYIVGDFDSISPDVKTYYESHGSKIIRQSSQYYNDFTKSIHCIQLHYQLNHTKENWFESIDEVDGLAKLWNGLNNSSDVVVDIDITIYVLNAIGGRFDQTVQSINQLYIMNEDYPKVTVFFITTNDIIFLLKKGVNYISYKNRLMFHKDNGSSPTPTCGLLPLSNKTPIILNSYGLKYDMRNWKTEMLGQVSSSNRISGETGFIVECSDDIVMNIEIDV`
// result soluble
